measured-on: CYP2C9 (Homo sapiens)
Construct: A system of 100 μL human liver microsomes; from tissue; host or cells: human liver microsomes
Sequence (P11712 whole entry): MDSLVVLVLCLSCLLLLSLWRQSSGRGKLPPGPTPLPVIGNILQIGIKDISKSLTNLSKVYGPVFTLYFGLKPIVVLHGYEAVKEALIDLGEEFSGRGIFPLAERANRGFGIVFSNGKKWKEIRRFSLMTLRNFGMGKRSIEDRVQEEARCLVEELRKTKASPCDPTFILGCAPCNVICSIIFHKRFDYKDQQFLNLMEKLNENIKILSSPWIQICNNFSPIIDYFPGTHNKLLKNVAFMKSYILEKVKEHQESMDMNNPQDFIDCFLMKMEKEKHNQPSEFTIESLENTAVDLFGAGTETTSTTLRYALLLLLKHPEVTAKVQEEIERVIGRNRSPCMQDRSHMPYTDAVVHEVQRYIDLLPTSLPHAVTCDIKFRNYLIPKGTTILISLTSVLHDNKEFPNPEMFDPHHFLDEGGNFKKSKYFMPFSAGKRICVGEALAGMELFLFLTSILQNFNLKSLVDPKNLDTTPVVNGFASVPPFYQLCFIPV
test: Direct inhibition (DI) of CYP2C9 in human liver microsomes
Type: in vitro ADME
protocol-conditions: probe Diclofenac, human liver microsomes 0.2 mg/mL, 10 μM compound, read-out: Direct inhibition (DI) 2C9 (Diclofenac)
Assignment: determine reported inhibition at 20 min, 10 µM for the given compounds.
Answers are plain numbers, in %.

- compound: "CCOc1cc2ncnc(Nc3ccc(Oc4ccn5ncnc5c4)c(C)c3)c2cc1NC(=O)/C=C/[C@H]1CCCN1"
  observed: 10

# input for lookup
Quick note, inhibition at 20 min, 10 µM for CCOc1cc2ncc(C#N)c(Nc3ccc(OCc4ccccn4)c(Cl)c3)c2cc1NC(=O)/C=C/[C@H]1CCCN1C [Pyrotinib, reference compound] landed at 26
